- TARGET OR SYSTEM: UniProt Q194T2
- Sequence (Q194T2 whole entry): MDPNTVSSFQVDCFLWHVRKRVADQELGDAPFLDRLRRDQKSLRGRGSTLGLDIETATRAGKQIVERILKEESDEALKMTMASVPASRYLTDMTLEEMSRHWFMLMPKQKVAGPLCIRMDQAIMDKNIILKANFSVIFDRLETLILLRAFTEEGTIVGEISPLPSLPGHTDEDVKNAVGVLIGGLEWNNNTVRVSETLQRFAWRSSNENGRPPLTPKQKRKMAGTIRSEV
- Assay type: functional, Influenza A virus (A/California/07/2009(H1N1))
Activity calls are given as the source filed them.
IC50 listing for selected compounds.
PROPERTY MEASURED: IC50

# COMPOUND, TARGET OR SYSTEM, ENDPOINT VALUE
records = [
    ("CCOC(=O)C(C(C)=O)c1c(Br)c(O)c(O)c2c(C(=O)c3ccc(C)cc3)coc12 (stereo unspecified)", "UniProt Q194T2", "> 100 µM (active)"),
    ("CCN(CC)S(=O)(=O)c1cc(OC)ccc1N=Nc1ccc(O)c2ncccc12", "UniProt Q194T2", "11.7 µM (active)"),
    ("COC(=O)Cc1cc(O)n(-c2nc3ccccc3[nH]2)n1", "UniProt Q194T2", "12.5 µM (active)"),
    ("CC1=NN(c2ccccc2)C(=O)/C1=C/C=C/c1ccc(N(C)C)cc1", "UniProt Q194T2", "3.14 µM (active)"),
    ("CCOc1cccc(/C=N/NC(=O)c2cccnc2)c1O", "UniProt Q194T2", "15.5 µM (active)"),
    ("N#C/C(=C/c1cn(-c2ccccc2)nc1-c1cccc(OCc2ccc(F)cc2)c1)C(=O)NCCCn1ccnc1", "UniProt Q194T2", "81.1 µM (active)"),
]

FYI, the data here is from ChEMBL document CHEMBL1201862.
